tested on: U2OS; test: fractional viability (live cells / total cells); higher = less cell death; details: 3.16 µM; 72 h
recorded.endpoint: fractional viability

Completed entries (count: 3):
compound: C[C@H]1[C@H](OC(=O)CCC(=O)O)O[C@@H]2O[C@@]3(C)CC[C@H]4[C@H](C)CC[C@@H]1[C@@]24OO3 [Artesunate]
test.target: U2OS
test.result: 0.971
--
compound: CCC(=O)N1CCN(c2ccc(-n3c(=O)ccc4cnc5ccc(-c6cnc7ccccc7c6)cc5c43)cc2C(F)(F)F)CC1
test.target: U2OS
test.result: 0.917
--
compound: CC(=O)c1c(C)c2cnc(Nc3ccc(N4CCNCC4)cn3)nc2n(C2CCCC2)c1=O
test.target: U2OS
test.result: 0.972

Continue with the next compound.
Request: Any idea what its fractional viability is? The compound is `COc1cc2nccc(Oc3ccc(NC(=O)Nc4cc(C)on4)c(Cl)c3)c2cc1OC`
Result: 0.949

Cited source: the supplement of paper PMC7394473
